Values were extracted from patent US20250339569A1.

Hi there, I'd appreciate the recorded Kd for every entry that follows.
Molecular target: human carbonic anhydrase IX (hCAIX-Fc) (Homo sapiens, UniProt Q16790)
Construct: purchased SinoBliological (Sino Biological) 10107-H02H
Experiment: Surface plasmon resonance assay with hCAIX-Fc
Assay type: binding
Settings: SPR, hCAIX-Fc captured, 25° C.; read-out: pKD category (activity) (converted)
Starred links: 1 amine or outer side, 2 acyl side, 3 side chain; linkers in the order of their positions; H or OH if unused. Positions of bridges follow the written chain, without caps; N, C: chain ends. Non-standard residues stand in square brackets, D forms with d. Residues, ends and D or L forms follow the SMILES beside them. *: point of attachment. X3 = O=C(O)CN1CCN(CC(=O)O)CCN(CC(=O)NCCCOCCOCCOCCCN*)CCN(CC(=O)O)CC1; DOTA = O=C(O)CN1CCN(CC(=O)O)CCN(CC(=O)*)CCN(CC(=O)O)CC1; mXylylene = c1cc(C[*:1])cc(C[*:2])c1; Suc = O=C(CCC(=O)[*:2])[*:1]; Dap = NC[C@H](N)C(=O)O; GABA = NCCCC(=O)O

1) CC(C)C[C@@H]1NC(=O)[C@H](Cc2c[nH]c3ccccc23)NC(=O)[C@H](CC(=O)O)NC(=O)CNC(=O)[C@H](CCC(=O)O)NC(=O)[C@@H](NC(=O)[C@H](Cc2ccc(O)cc2)NC(=O)[C@@H](NC(=O)CCC(=O)NCCCOCCOCCOCCCNC(=O)CN2CCN(CC(=O)O)CCN(CC(=O)O)CCN(CC(=O)O)CC2)C(C)C)CSCc2cccc(c2)CSC[C@@H](C(N)=O)NC(=O)[C@H](C)NC(=O)[C@H](Cc2c[nH]c3ccccc23)NC(=O)[C@H]([C@@H](C)O)NC1=O [3BP-3272] ({X3-Suc}-VYCEGDWLTWAC-NH2; linker 3-12 via mXylylene)    < 10 nM

Turning now to a further compound:
q: Tell me the measured Kd of CC(C)C[C@@H]1NC(=O)[C@H](Cc2c[nH]c3ccccc23)NC(=O)[C@H](CC(=O)O)NC(=O)[C@H]2CCCN2C(=O)[C@H](CCC(=O)O)NC(=O)[C@@H]2CSCc3cccc(c3)CSC[C@@H](C(N)=O)NC(=O)[C@H](CNC(=O)C[C@H](NC(=O)CCCNC(=O)CN3CCN(CC(=O)O)CCN(CC(=O)O)CCN(CC(=O)O)CC3)C(=O)N2)NC(=O)[C@H](Cc2c[nH]c3ccccc23)NC(=O)[C@H]([C@@H](C)O)NC1=O [3BP-4263] ({DOTA-GABA}-DCE[dP]DWLTW[Dap]C-NH2; lactam 1-10; linker 2-11 via mXylylene) , please.
a: < 10 nM

---

Experiment: Biodistribution study (SPECT/CT) in HT-29 tumor-bearing mice
Format: in vivo, NMRI nude mice
Details: female, NMRI nude, mouse, in vivo, iv, total radioactivity, HT-29, In-111-labeled; Mean ± SEM; read-out: Kidney uptake at 24 h p.i.
Procedure: The effect on tumor uptake of prior injection of gelofusine for kidney protection was investigated in mice bearing the SK-RC-52 tumor. Biodistribution was evaluated using in vivo SPECT/CT imaging. Prior to the in vivo study the compounds (ligands) were initially radiolabeled with In-111 and the stability of radiolabeled compounds was evaluated in buffer at three different timepoints. […]
metric: tissue uptake at 24 h

q: Tell me the measured tissue uptake at 24 h of CC(C)C[C@@H]1NC(=O)[C@H](Cc2cccc(NC(=O)CCCS(N)(=O)=O)c2)NC(=O)[C@H](CC(=O)O)NC(=O)[C@H]2CCCN2C(=O)[C@H](CCC(=O)O)NC(=O)[C@@H](NC(=O)[C@H](CCC(N)=O)NC(=O)CN2CCN(C(=O)CN3CCN(CC(=O)O)CCN(CC(=O)O)CCN(CC(=O)O)CC3)CC2)CSCc2cccc(c2)CSC[C@@H](C(N)=O)NC(=O)[C@H](CO)NC(=O)[C@H](Cc2c[nH]c3ccccc23)NC(=O)[C@H]([C@@H](C)O)NC1=O , please.
a: 1.41 %ID/g

---

Molecular target: CAIX-expressing human HT-29 colorectal cancer cells (Homo sapiens, UniProt Q16790)
Construct: CAIX-expressing human HT-29 colorectal cancer cells; host or cells: HT-29 human colorectal cancer cells
Assay: FACS binding assay (IC50 determination, competition with tracer 3BP-2776 or 3BP-4149)
Conditions: FACS binding assay, HT-29 cells, competition with tracer 3BP-2776 (10 nM, biotin-labeled), 4° C., 1 hour; read-out: pIC50 category (activity) (converted)
metric: IC50

q: Tell me the measured IC50 of CC(C)C[C@@H]1NC(=O)[C@H](Cc2cccc(NC(=O)CCCS(N)(=O)=O)c2)NC(=O)[C@H](CC(=O)O)NC(=O)[C@H]2CCCN2C(=O)[C@H](CCC(=O)O)NC(=O)[C@@H](NC(=O)[C@H](CCC(N)=O)NC(=O)CN2CCN(CC(=O)O)CCN(CC(=O)O)CCN(CC(=O)O)CC2)CSCc2cccc(c2)CSC[C@@H](C(N)=O)NC(=O)[C@H](CO)NC(=O)[C@H](Cc2c[nH]c3ccccc23)NC(=O)[C@H]([C@@H](C)O)NC1=O , please.
a: < 10 nM

---

Target: CAIX-expressing human HT-29 colorectal cancer cells (Homo sapiens)
Construct: CAIX-expressing human HT-29 colorectal cancer cells; host or cells: HT-29 human colorectal cancer cells
Assay: FACS binding assay (IC50 determination, competition with tracer 3BP-2776 or 3BP-4149)
Details: FACS competition on HT-29 cells, Tracer ID 3BP-2776 (10 nM, biotin-labeled), 4° C., 1 hour; read-out: pIC50 category (activity) (converted)
Starred links: 1 amine or outer side, 2 acyl side, 3 side chain; linkers in the order of their positions; H or OH if unused. Positions of bridges follow the written chain, without caps; N, C: chain ends. Non-standard residues stand in square brackets, D forms with d. Residues, ends and D or L forms follow the SMILES beside them. *: point of attachment. DOTA = O=C(O)CN1CCN(CC(=O)O)CCN(CC(=O)*)CCN(CC(=O)O)CC1; mXylylene = c1cc(C[*:1])cc(C[*:2])c1; X2 = O=C(CN1CCC(N[*:1])CC1)[*:2]; Hexanoyl = CCCCCC(=O)*; Aib = CC(C)(N)C(=O)O
Hi there, I'd appreciate the recorded IC50 for every entry that follows.

1. CC(C)C[C@@H]1NC(=O)[C@H](Cc2c[nH]c3ccccc23)NC(=O)[C@H](CC(=O)O)NC(=O)[C@H]2CCCN2C(=O)[C@H](CCC(=O)O)NC(=O)[C@@H](NC(=O)[C@H](Cc2ccc(O)cc2)NC(=O)[C@@H](NC(=O)CN2CCC(NC(=O)CN3CCN(CC(=O)O)CCN(CC(=O)O)CCN(CC(=O)O)CC3)CC2)C(C)C)CSCc2cccc(c2)CSC[C@@H](C(N)=O)NC(=O)[C@H](CO)NC(=O)[C@H](Cc2c[nH]c3ccccc23)NC(=O)[C@H]([C@@H](C)O)NC1=O [3BP-3583] ({DOTA}-[X2]VYCE[dP]DWLTWSC-NH2; linker 4-13 via mXylylene)    < 10 nM

Each of the following entries comes with a recorded value; kindly state IC50 for each.
1. CC(=O)N[C@H](C(=O)N[C@@H](Cc1ccccc1)C(=O)N[C@H]1CSCc2cccc(c2)CSC[C@@H](C(N)=O)NC(=O)[C@H](CO)NC(=O)[C@H](Cc2c[nH]c3ccccc23)NC(=O)[C@H]([C@@H](C)O)NC(=O)[C@H](CC(C)C)NC(=O)[C@H](Cc2c[nH]c3ccccc23)NC(=O)[C@H](CC(=O)O)NC(=O)[C@H]2CCCN2C(=O)[C@H](CCC(=O)O)NC1=O)C(C)C [3BP-3570] (Ac-VFCE[dP]DWLTWSC-NH2; linker 3-12 via mXylylene)
2. CC(=O)N[C@H](C(=O)N[C@@H](Cc1ccc(O)cc1)C(=O)N[C@H]1CSCc2cccc(c2)CSC[C@@H](C(N)=O)NC(=O)[C@H](CCC(N)=O)NC(=O)[C@H](Cc2c[nH]c3ccccc23)NC(=O)[C@H]([C@@H](C)O)NC(=O)[C@H](CC(C)C)NC(=O)[C@H](Cc2c[nH]c3ccccc23)NC(=O)[C@H](CC(=O)O)NC(=O)C(C)(C)NC(=O)[C@H](CCC(=O)O)NC1=O)C(C)C [3BP-3059] (Ac-VYCE[Aib]DWLTWQC-NH2; linker 3-12 via mXylylene)
3. CC(C)C[C@@H]1NC(=O)[C@H](Cc2c[nH]c3ccccc23)NC(=O)[C@@H]2CCCCNC(=O)CC[C@H](NC1=O)C(=O)N[C@@H](Cc1c[nH]c3ccccc13)C(=O)N[C@@H](CO)C(=O)N[C@H](C(N)=O)CSCc1cccc(c1)CSC[C@H](NC(=O)[C@H](Cc1ccc(O)cc1)NC(=O)CN1CCN(CC(=O)O)CCN(CC(=O)O)CCN(CC(=O)O)CC1)C(=O)N[C@@H](CCC(=O)O)C(=O)N1CCC[C@@H]1C(=O)N2 [3BP-3934] ({DOTA}-YCE[dP]KWLEWSC-NH2; linker 2-11 via mXylylene; lactam 5-8)
4. CC(=O)N[C@H](C(=O)N[C@@H](Cc1ccc(O)cc1)C(=O)N[C@H]1CSCc2cccc(c2)CSC[C@@H](C(N)=O)NC(=O)[C@H](CO)NC(=O)[C@H](Cc2c[nH]c3ccccc23)NC(=O)[C@@H]2CCCCNC(=O)CC[C@H](NC1=O)C(=O)N1CCC[C@@H]1C(=O)N[C@@H](CC(=O)O)C(=O)N[C@@H](Cc1c[nH]c3ccccc13)C(=O)N[C@@H](CC(C)C)C(=O)N2)C(C)C [3BP-3899] (Ac-VYCE[dP]DWLKWSC-NH2; linker 3-12 via mXylylene; lactam 4-9)
5. CC(=O)N[C@H](C(=O)N[C@@H](Cc1ccc(O)cc1)C(=O)N[C@H]1CSCc2cccc(c2)CSC[C@@H](C(N)=O)NC(=O)[C@H](CCC(N)=O)NC(=O)[C@H](Cc2c[nH]c3ccccc23)NC(=O)[C@H]([C@@H](C)O)NC(=O)[C@H](CC(C)C)NC(=O)[C@H](Cc2c[nH]c3ccccc23)NC(=O)[C@H](CC(=O)O)NC(=O)CNC(=O)[C@H](CCC(=O)O)NC1=O)C(C)C [3BP-2837] (Ac-VYCEGDWLTWQC-NH2; linker 3-12 via mXylylene)

a:
< 10 nM
< 10 nM
< 10 nM
100 to 794 nM
< 10 nM

Each of the following entries comes with a recorded value; kindly state IC50 for each.
1. CCCCCC(=O)N[C@H](C(=O)N[C@@H](Cc1ccc(O)cc1)C(=O)N[C@H]1CSCc2cccc(c2)CSC[C@@H](C(N)=O)NC(=O)[C@H](CCC(N)=O)NC(=O)[C@H](Cc2c[nH]c3ccccc23)NC(=O)[C@H]([C@@H](C)O)NC(=O)[C@H](CC(C)C)NC(=O)[C@H](Cc2c[nH]c3ccccc23)NC(=O)[C@H](CC(=O)O)NC(=O)CNC(=O)[C@H](CCC(=O)O)NC1=O)C(C)C [3BP-3107] (Hexanoyl-VYCEGDWLTWQC-NH2; linker 3-12 via mXylylene)
2. CC(C)C[C@@H]1NC(=O)[C@H](Cc2ccccc2)NC(=O)[C@H](CC(=O)O)NC(=O)[C@H]2CCCN2C(=O)[C@H](CCC(=O)O)NC(=O)[C@@H](NC(=O)[C@H](Cc2ccc(O)cc2)NC(=O)[C@@H](NC(=O)CN2CCC(NC(=O)CN3CCN(CC(=O)O)CCN(CC(=O)O)CCN(CC(=O)O)CC3)CC2)C(C)C)CSCc2cccc(c2)CSC[C@@H](C(N)=O)NC(=O)[C@H](CO)NC(=O)[C@H](Cc2c[nH]c3ccccc23)NC(=O)[C@H]([C@@H](C)O)NC1=O [3BP-3596] ({DOTA}-[X2]VYCE[dP]DFLTWSC-NH2; linker 4-13 via mXylylene)
3. CC(=O)N[C@H](C(=O)N[C@@H](Cc1ccc(O)cc1)C(=O)N[C@H]1CSCc2cccc(c2)CSC[C@@H](C(N)=O)NC(=O)[C@H](CCC(N)=O)NC(=O)[C@H](Cc2c[nH]c3ccccc23)NC(=O)[C@@H]([C@H](C)O)NC(=O)[C@H](CC(C)C)NC(=O)[C@H](Cc2c[nH]c3ccccc23)NC(=O)[C@H](CC(=O)O)NC(=O)CNC(=O)[C@H](CCC(=O)O)NC1=O)C(C)C [3BP-3049] (Ac-VYCEGDWL[dT]WQC-NH2; linker 3-12 via mXylylene)

a:
< 10 nM
< 10 nM
100 to 794 nM
